Provenance of the data: patent US20240307362A1

Measured IC50, listed per entry.
molecular target: human Bub1 (Homo sapiens (Human)); test: Bub1 high ATP kinase assay (TR-FRET); assay type: biochemical; settings: read-out: Bub1 high ATP (2 mM) IC50; 2 mM ATP
Sequence (O43683 704-1085): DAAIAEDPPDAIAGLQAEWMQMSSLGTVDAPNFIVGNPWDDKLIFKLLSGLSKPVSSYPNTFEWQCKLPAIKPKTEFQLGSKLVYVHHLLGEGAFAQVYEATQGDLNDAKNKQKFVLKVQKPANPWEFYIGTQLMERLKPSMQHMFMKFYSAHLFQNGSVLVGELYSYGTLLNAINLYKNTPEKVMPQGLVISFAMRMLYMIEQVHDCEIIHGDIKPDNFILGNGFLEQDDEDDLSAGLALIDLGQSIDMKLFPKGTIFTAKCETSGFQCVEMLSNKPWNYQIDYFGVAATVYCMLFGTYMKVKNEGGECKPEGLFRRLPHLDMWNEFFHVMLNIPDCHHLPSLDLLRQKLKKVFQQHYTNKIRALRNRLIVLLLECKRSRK
Reply with just the number (in µM).

compound	IC50 / µM
COc1c(Cl)cccc1Nc1c(-c2ccncc2OCC2(C)CCO2)[nH]c2c1C(=O)NCC2 (single isomer, unassigned; (+)) [Example 48]	10.3
COc1c(Cl)cccc1Nc1c(-c2ccncc2OCCC2CCO2)[nH]c2c1C(=O)NCC2 (single isomer, unassigned; (-)) [Example 26]	1.54
Cc1c(Cl)cccc1Nc1c(-c2ccncc2OCC2CCO2)[nH]c2c1C(=O)NCC2 (racemic)	2.63
COc1c(Nc2c(-c3ccncc3OCC3CCO3)[nH]c3c2C(=O)NCC3)ccc(F)c1Cl (single isomer, unassigned; (-)) [Example 14]	16.3
Cc1cccc(Nc2c(-c3ccncc3OCC3CCO3)[nH]c3c2C(=O)NCC3)c1Cl (racemic) [Example 37]	11.7
CCC1(COc2cnccc2-c2[nH]c3c(c2Nc2cccc(F)c2OC)C(=O)NCC3)COC1	7.49
Cc1c(Cl)cccc1Nc1c(-c2ccncc2OCC2(C)CCO2)[nH]c2c1C(=O)NCC2 (racemic) [Example 80]	6.64
COc1c(Cl)cccc1Nc1c(-c2ccncc2OC[C@H]2CCO2)[nH]c2c1C(=O)NCC2	4.51

Request - read-out IC50 | tested on human Bub1 (Homo sapiens (Human)) | compound Cc1c(Cl)cc(F)cc1Nc1c(-c2ccncc2OCC2CCO2)[nH]c2c1C(=O)NCC2 (racemic)
10.5

Request - read-out IC50 | tested on human Bub1 (Homo sapiens (Human)) | compound `Cc1c(Cl)cccc1Nc1c(-c2ccncc2OC[C@H]2CCO2)[nH]c2c1C(=O)NCC2`
1.57
